# Target entity: E. coli NDH-1 NuoH mutant E36D (Escherichia coli, UniProt P0AFC7+P0AFD4+P33599, E36D)
# Test protocol: Inhibition of dNADH oxidase activity, NuoH mutant E36D
# Condition label: app IC50, 50% inhibition of the dNADH oxidase activity, NuoH mutant E36D
Quantity measured: IC50 (nM)
One number for each entry, in nM.

### Prompt Given the molecule CCCCCCCCCCCC[C@H](O)[C@H]1CC[C@H]([C@H]2CC[C@H]([C@H](O)CCCCCCCC[C@@H](O)CC3=C[C@H](C)OC3=O)O2)O1 , what is its reported IC50?
### Response 3

* * *

# Target entity: E. coli NDH-1 NuoD mutant D325A (Escherichia coli, UniProt P0AFD4+P33599, D325A)
# Sequence (P33599 whole entry D325A): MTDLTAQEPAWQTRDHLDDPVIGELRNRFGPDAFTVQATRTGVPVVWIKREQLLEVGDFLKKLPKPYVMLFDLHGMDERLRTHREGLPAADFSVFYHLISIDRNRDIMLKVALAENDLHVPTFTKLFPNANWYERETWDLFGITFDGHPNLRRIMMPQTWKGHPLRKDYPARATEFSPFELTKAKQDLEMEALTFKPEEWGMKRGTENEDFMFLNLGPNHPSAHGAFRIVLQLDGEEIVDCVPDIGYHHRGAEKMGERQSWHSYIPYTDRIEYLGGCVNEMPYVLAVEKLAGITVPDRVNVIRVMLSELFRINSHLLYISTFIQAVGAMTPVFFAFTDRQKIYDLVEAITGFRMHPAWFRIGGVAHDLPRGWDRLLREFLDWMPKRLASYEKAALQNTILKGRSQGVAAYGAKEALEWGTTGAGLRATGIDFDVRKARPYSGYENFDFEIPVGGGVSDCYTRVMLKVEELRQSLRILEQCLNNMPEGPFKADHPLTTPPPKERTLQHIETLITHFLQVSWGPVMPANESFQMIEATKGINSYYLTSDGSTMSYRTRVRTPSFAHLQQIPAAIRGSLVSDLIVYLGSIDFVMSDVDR
# Sequence (P0AFD4 whole entry): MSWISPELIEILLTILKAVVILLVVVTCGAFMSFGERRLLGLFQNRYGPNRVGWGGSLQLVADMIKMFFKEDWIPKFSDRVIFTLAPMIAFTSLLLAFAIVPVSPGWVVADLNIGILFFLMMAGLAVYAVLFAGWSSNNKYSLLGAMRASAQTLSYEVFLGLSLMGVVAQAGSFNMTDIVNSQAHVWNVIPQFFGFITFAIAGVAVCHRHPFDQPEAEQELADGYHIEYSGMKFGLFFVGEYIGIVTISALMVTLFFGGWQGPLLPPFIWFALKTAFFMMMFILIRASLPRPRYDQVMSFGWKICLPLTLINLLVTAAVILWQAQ
# Sequence (P0AFC7 whole entry partner): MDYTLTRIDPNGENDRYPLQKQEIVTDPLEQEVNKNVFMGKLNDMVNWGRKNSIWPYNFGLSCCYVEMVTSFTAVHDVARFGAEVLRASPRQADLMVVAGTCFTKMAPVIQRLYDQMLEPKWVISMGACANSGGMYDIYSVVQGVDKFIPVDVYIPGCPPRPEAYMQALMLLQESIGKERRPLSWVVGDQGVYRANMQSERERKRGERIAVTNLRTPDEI
# Test protocol: Inhibition of dNADH oxidase activity, NuoD mutant D325A
# Format: biochemical
Quantity measured: IC50 (µM)
Answers are plain numbers, in µM.

### Prompt Requested read-out: IC50. Entry: CCCCCCCCCCCC[C@H](O)[C@H]1CC[C@H]([C@H]2CC[C@H]([C@H](O)CCCCCCCC[C@@H](O)CC3=C[C@H](C)OC3=O)O2)O1
### Response 0.011
